These measurements were taken from patent US11807625B2.

test: PK of compound of Formula (Ia) after single subcutaneous dose of solution formulations in beagle dogs; format: in vivo; conditions: male, beagle, dog, plasma, sc, 6 mg/kg, 1680 h; mean, n = 3 dogs; SC 6 mg/kg; solution V, 300 mg/mL
Measurement Label: concentration at 1680 h (nM)
Dear colleague, please return just the value in nM, with no unit written.

Answer with the recorded concentration at 1680 h of `CC(C)(C#Cc1ccc(-c2ccc(Cl)c3c(NS(C)(=O)=O)nn(CC(F)(F)F)c23)c([C@H](Cc2cc(F)cc(F)c2)NC(=O)Cn2nc(C(F)(F)F)c3c2C(F)(F)[C@@H]2C[C@H]32)n1)S(C)(=O)=O` only. 12.3
